Provide the reported TLR9-500 nM: averaged NF-κB-Luciferase relative to ODN2006 of each item.
TESTED TARGET: human TLR9 (Homo sapiens, UniProt Q9NR96)
Construct: HA; host or cells: 293XL-hTLR9-HA (HEK293)
Sequence (Q9NR96 26-1032): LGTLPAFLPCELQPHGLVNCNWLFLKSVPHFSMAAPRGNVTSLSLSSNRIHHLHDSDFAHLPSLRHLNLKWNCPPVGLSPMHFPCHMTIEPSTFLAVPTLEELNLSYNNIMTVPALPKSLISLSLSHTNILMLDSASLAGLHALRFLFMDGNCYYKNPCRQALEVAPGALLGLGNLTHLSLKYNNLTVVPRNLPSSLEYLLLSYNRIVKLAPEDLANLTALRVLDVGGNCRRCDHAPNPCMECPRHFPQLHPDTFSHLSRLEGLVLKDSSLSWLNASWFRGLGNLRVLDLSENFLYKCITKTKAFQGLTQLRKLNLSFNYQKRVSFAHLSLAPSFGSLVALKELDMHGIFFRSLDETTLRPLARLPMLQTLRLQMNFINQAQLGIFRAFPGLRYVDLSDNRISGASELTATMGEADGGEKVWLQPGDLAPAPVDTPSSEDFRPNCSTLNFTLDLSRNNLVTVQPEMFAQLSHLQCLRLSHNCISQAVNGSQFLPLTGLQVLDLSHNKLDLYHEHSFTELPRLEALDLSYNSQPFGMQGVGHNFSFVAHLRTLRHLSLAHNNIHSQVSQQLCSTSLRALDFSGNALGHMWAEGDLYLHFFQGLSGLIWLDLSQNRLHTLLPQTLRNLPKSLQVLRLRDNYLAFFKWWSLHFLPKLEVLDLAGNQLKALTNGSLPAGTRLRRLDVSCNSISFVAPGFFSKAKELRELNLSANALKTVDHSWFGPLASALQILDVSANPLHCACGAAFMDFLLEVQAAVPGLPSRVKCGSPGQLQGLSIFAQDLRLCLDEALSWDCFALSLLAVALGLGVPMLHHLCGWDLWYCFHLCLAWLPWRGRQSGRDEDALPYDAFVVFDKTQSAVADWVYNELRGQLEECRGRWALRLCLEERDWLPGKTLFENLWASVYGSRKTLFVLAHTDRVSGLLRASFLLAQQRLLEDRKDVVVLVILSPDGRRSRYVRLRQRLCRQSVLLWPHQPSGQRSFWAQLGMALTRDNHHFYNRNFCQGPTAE
PROTOCOL DETAILS: HEK-TLR9 NF-κB-luciferase reporter, ODN2006 stimulation
Format: cell-based
ASSAY SETUP: HEK-TLR9; 500 nM ASO 45 min, then 200 nM ODN2006 overnight; percentage of ODN2006 only
In the oligonucleotide strings, read from the 5' end, every base follows the letter of its sugar. An asterisk marks phosphorothioate; unmarked linkages are phosphodiester. Other units and linkages are bracketed, terminal groups are in braces. A string of capitals states the bases alone. d = 2'-deoxy (DNA); m = 2'-O-methyl
Record the value in %, omitting the unit from your answer.

Ask | Provide value of TLR9-500 nM: averaged NF-κB-Luciferase relative to ODN2006 for this record tested with human TLR9 (Homo sapiens, UniProt Q9NR96): mG*mA*mA*mA*mA*G*A*T*T*A*T*C*T*T*C*mU*mU*mU*mU*mA (GAAAAGATTATCTTCUUUUA; sugars from the 5' end m5 d10 m5, all phosphorothioate, methylation of C not given here) [[CDKN2B-AS1]2134]
Reply | 61.11

Ask | Observed TLR9-500 nM: averaged NF-κB-Luciferase relative to ODN2006 on human TLR9 (Homo sapiens, UniProt Q9NR96) for mC*mA*mA*mG*mC*C*C*C*A*G*C*G*T*T*C*mC*mU*mC*mC*mG (mC*mA*mA*mG*mC*dC*dC*dC*dA*dG*dC*dG*dT*dT*dC*mC*mU*mC*mC*mG; antisense) [[LINC-PINT]83.1] , please.
Reply | 93.79

Ask | Reported TLR9-500 nM: averaged NF-κB-Luciferase relative to ODN2006 for human TLR9 (Homo sapiens, UniProt Q9NR96), given mU*mC*mU*mC*mU*C*T*G*G*T*C*C*C*A*T*mC*mC*mC*mU*mU (mU*mC*mU*mC*mU*dC*dT*dG*dG*dT*dC*dC*dC*dA*dT*mC*mC*mC*mU*mU; antisense) [[LINC-PINT]110] ?
Reply | 74.25

Ask | Reported TLR9-500 nM: averaged NF-κB-Luciferase relative to ODN2006 for human TLR9 (Homo sapiens, UniProt Q9NR96), given mA*mU*mU*mU*mC*C*A*C*A*T*G*C*C*C*A*mG*mU*mG*mU*mU (AUUUCCACATGCCCAGUGUU; antisense; sugars from the 5' end m5 d10 m5, all phosphorothioate, methylation of C not given here) [[CDKN2B-AS1]626] ?
Reply | 63.65

Ask | Query TLR9-500 nM: averaged NF-κB-Luciferase relative to ODN2006 on human TLR9 (Homo sapiens, UniProt Q9NR96) for mA*mG*mC*mA*mG*T*C*T*C*C*A*T*G*T*C*mC*mC*mA*mG*mG (AGCAGTCTCCATGTCCCAGG; antisense; sugars from the 5' end m5 d10 m5, all phosphorothioate, methylation of C not given here) [[CDKN2B-AS1]2235]
Reply | 73.18

Ask | Item mG*mU*mG*mU*mC*C*T*T*C*A*T*G*C*T*T*mU*mG*mG*mA*mU (GUGUCCTTCATGCTTUGGAU; antisense; sugars from the 5' end m5 d10 m5, all phosphorothioate, methylation of C not given here) [[CDKN2B-AS1]1415] with human TLR9 (Homo sapiens, UniProt Q9NR96) - TLR9-500 nM: averaged NF-κB-Luciferase relative to ODN2006?
Reply | 98.99

Ask | Quick check: TLR9-500 nM: averaged NF-κB-Luciferase relative to ODN2006 on human TLR9 (Homo sapiens, UniProt Q9NR96), item mC*mC*mA*mU*mG*T*C*C*C*A*G*G*C*C*T*mC*mC*mA*mG*mU (CCAUGTCCCAGGCCTCCAGU; sugars from the 5' end m5 d10 m5, all phosphorothioate, methylation of C not given here) [[CDKN2B-AS1]2227] ?
Reply | 48.79

Ask | Hello, I am looking for reported TLR9-500 nM: averaged NF-κB-Luciferase relative to ODN2006 with human TLR9 (Homo sapiens, UniProt Q9NR96) for mA*mA*mA*mG*mC*A*G*T*C*T*C*C*A*T*G*mU*mC*mC*mC*mA (mA*mA*mA*mG*mC*dA*dG*dT*dC*dT*dC*dC*dA*dT*dG*mU*mC*mC*mC*mA; antisense) [[CDKN2B-AS1]2237] . Could you help?
Reply | 87.17

Ask | Quick check: TLR9-500 nM: averaged NF-κB-Luciferase relative to ODN2006 on human TLR9 (Homo sapiens, UniProt Q9NR96), item mU*mG*mA*mC*mA*A*A*A*C*A*A*T*A*A*T*mA*mA*mC*mA*mG (mU*mG*mA*mC*mA*dA*dA*dA*dC*dA*dA*dT*dA*dA*dT*mA*mA*mC*mA*mG) [[LINC-PINT]384] ?
Reply | 53.61

Ask | Under human TLR9 (Homo sapiens, UniProt Q9NR96): TLR9-500 nM: averaged NF-κB-Luciferase relative to ODN2006 value of mC*mC*mU*mU*mC*T*G*C*T*G*C*C*A*A*G*mC*mC*mC*mC*mA (mC*mC*mU*mU*mC*dT*dG*dC*dT*dG*dC*dC*dA*dA*dG*mC*mC*mC*mC*mA; antisense) [[LINC-PINT]94] ?
Reply | 96.69

Ask | Lookup: TLR9-500 nM: averaged NF-κB-Luciferase relative to ODN2006 / human TLR9 (Homo sapiens, UniProt Q9NR96) / mU*mC*mU*mG*mG*T*C*C*C*A*T*C*C*C*T*mU*mC*mU*mG*mC (UCUGGTCCCATCCCTUCUGC; antisense; sugars from the 5' end m5 d10 m5, all phosphorothioate, methylation of C not given here) [[LINC-PINT]106]
Reply | 56.60

Ask | # value lookup — system human TLR9 (Homo sapiens, UniProt Q9NR96), readout TLR9-500 nM: averaged NF-κB-Luciferase relative to ODN2006, item mA*mA*mA*mG*mA*T*T*A*T*C*T*T*C*T*T*mU*mU*mA*mA*mU (mA*mA*mA*mG*mA*dT*dT*dA*dT*dC*dT*dT*dC*dT*dT*mU*mU*mA*mA*mU) [[CDKN2B-AS1]2132]
Reply | 63.14

Ask | Please state recorded TLR9-500 nM: averaged NF-κB-Luciferase relative to ODN2006 (tested on human TLR9 (Homo sapiens, UniProt Q9NR96)) of mC*mU*mC*mU*mC*T*G*G*T*C*C*C*A*T*C*mC*mC*mU*mU*mC (mC*mU*mC*mU*mC*dT*dG*dG*dT*dC*dC*dC*dA*dT*dC*mC*mC*mU*mU*mC; antisense) [[LINC-PINT]109]
Reply | 89.85

Ask | Give TLR9-500 nM: averaged NF-κB-Luciferase relative to ODN2006 (human TLR9 (Homo sapiens, UniProt Q9NR96)) of the following substance: mA*mG*mG*mC*mC*T*C*C*A*G*T*G*T*C*T*mU*mC*mU*mC*mC (mA*mG*mG*mC*mC*dT*dC*dC*dA*dG*dT*dG*dT*dC*dT*mU*mC*mU*mC*mC; antisense) [[CDKN2B-AS1]2218]
Reply | 81.24

Ask | Missing value: TLR9-500 nM: averaged NF-κB-Luciferase relative to ODN2006, human TLR9 (Homo sapiens, UniProt Q9NR96), entry mC*mA*mC*mU*mG*T*A*T*T*T*T*A*T*T*A*mC*mA*mG*mA*mA (mC*mA*mC*mU*mG*dT*dA*dT*dT*dT*dT*dA*dT*dT*dA*mC*mA*mG*mA*mA; antisense) [[LINC-PINT]2990] . Fill in?
Reply | 117.42

Ask | I'm curious: which TLR9-500 nM: averaged NF-κB-Luciferase relative to ODN2006 was measured for mC*mA*mG*mG*mC*C*T*C*C*A*G*T*G*T*C*mU*mU*mC*mU*mC (mC*mA*mG*mG*mC*dC*dT*dC*dC*dA*dG*dT*dG*dT*dC*mU*mU*mC*mU*mC; antisense) [[CDKN2B-AS1]2219] tested on human TLR9 (Homo sapiens, UniProt Q9NR96)?
Reply | 66.99

Ask | What TLR9-500 nM: averaged NF-κB-Luciferase relative to ODN2006 appears in the records for this substance with human TLR9 (Homo sapiens, UniProt Q9NR96)? mU*mG*mU*mG*mA*A*A*A*G*A*T*T*A*T*C*mU*mU*mC*mU*mU (UGUGAAAAGATTATCUUCUU; sugars from the 5' end m5 d10 m5, all phosphorothioate, methylation of C not given here) [[CDKN2B-AS1]2137]
Reply | 62.16
